Cited source for all entries: the array DNA melting data of Ke et al. (doi:10.1101/2024.01.08.574731)

- experiment: folding enthalpy; higher = less favourable; fluorescence melt of hairpins on a sequencing array, two-state fit
- appliedConditions: sodium 0.088 M
Examples of sequences with documented folding enthalpy follow.

{"sequenceCode": "GATGTCGAAAGACATC ((((((....))))))", "folding enthalpy / kcal/mol": -36.3}
{"sequenceCode": "GATCTCATCGAGATC ((((((...))))))", "folding enthalpy / kcal/mol": -36.1}
{"sequenceCode": "GCGAGATCTCGC ((((....))))", "folding enthalpy / kcal/mol": -35.4}
{"sequenceCode": "GTATCTCCGAAAGGATAC (((..(((....))))))", "folding enthalpy / kcal/mol": -19.6}
{"sequenceCode": "GATAGCGAAAGCTGTATC ((((((....)))..)))", "folding enthalpy / kcal/mol": -12.8}
{"sequenceCode": "GAATGCGAAAGCAGCTTC ((((((....)))..)))", "folding enthalpy / kcal/mol": -23}
